- Tested on: Nucleic Acid
- Method notes: Binding affinity to human telomeric G-quadruplex DNA at 200 uM after 1 hr by ESI-TOF-MS analysis
- Assay type: nucleic-acid assay
Recorded Activity for the following compounds

Here's what some known entries look like.
CC(=O)N[C@H]1[C@H](O[C@@H](CC=C(C)C)C2=CC(=O)c3c(O)ccc(O)c3C2=O)O[C@H](CO)[C@@H](O)[C@@H]1O = 39.3%
CC(C)=CC[C@@H](O)C1=CC(=O)c2c(O)ccc(O)c2C1=O = 0%
CC(C)=CC[C@H](O)C1=CC(=O)c2c(O)ccc(O)c2C1=O = 0%
CC(=O)N[C@H]1[C@H](O[C@H](CC=C(C)C)C2=CC(=O)c3c(O)ccc(O)c3C2=O)O[C@H](CO)[C@@H](O)[C@@H]1O = 47%

Noted for COc1ccc2cc3[n+](cc2c1OC)CCc1cc2c(cc1-3)OCO2 : its Activity reads 58.9%
